- Test system: Kidney
- measurementNotes: Biodistribution in kidney of C57BL/6J mouse bearing mouse B16F0 cells at 0.37 to 1.85 MBq, iv after 6 hrs by gamma counting method
- Type: ADME, organism-based
- conditionDetails: in vivo
outcomeMeasure: Drug uptake (% ID/g)

In [3]: df
Out[3]:
                                 smilestext     tgt  reportedmeasurement
0  O=C(CN1Cc2ccccc2C1=O)N1C[C@H]2CN(Cc3ccc([123I])cc3)C[C@H]2C1  Kidney                  4.1
1  O=C(CN1Cc2ccccc2C1=O)NC1CCN(Cc2ccc([123I])cc2)CC1  Kidney                    5

[A] O=C(c1ccc2cccnc2n1)N1CCN(Cc2ccc([123I])cc2)CC1
[B] O=C(c1ccc2c(n1)NCCC2)N1CCN(Cc2ccc([123I])cc2)CC1
Q) Of the pair A and B , name the member with the lesser recorded Drug uptake. Refer to your chosen entry by its label in the reply.
A) A
(A: 5.2 % ID/g, B: 10 % ID/g)

* * *

- System: Mus musculus
- measurementNotes: Biodistribution in large gastrointestinal tract of C57BL/6J mouse bearing mouse B16F0 cells at 0.37 to 1.85 MBq, iv after 24 hrs by gamma counting method
- Assay type: ADME, organism-based, Large intestine
- conditionDetails: in vivo
outcomeMeasure: Drug uptake (% ID/g)

As a guide, the following entries are already answered.
>>> df
                                 smilestext  reportedmeasurement
0  O=C(CN1Cc2ccccc2C1=O)N1C[C@H]2CN(Cc3ccc([123I])cc3)C[C@H]2C1                    1
1  O=C(c1ccc2cccnc2n1)N1CCN(Cc2ccc([123I])cc2)CC1                  1.4

[A] O=C(CN1Cc2ccccc2C1=O)NC1CCN(Cc2ccc([123I])cc2)CC1
[B] O=C(c1ccc2c(n1)NCCC2)N1CCN(Cc2ccc([123I])cc2)CC1
Q) Of the pair A and B , name the member with the lesser recorded Drug uptake. Refer to your chosen entry by its label in the reply.
A) B

* * *

- System: Liver
- measurementNotes: Biodistribution in liver of C57BL/6J mouse bearing mouse B16F0 cells at 0.37 to 1.85 MBq, iv after 1 hr by gamma counting method
- Assay type: ADME, organism-based
- conditionDetails: in vivo
outcomeMeasure: Drug uptake (% ID/g)

As a guide, the following entries are already answered.
                                 smilestext  reportedmeasurement
0  O=C(c1ccc2cccnc2n1)N1CCN(Cc2ccc([123I])cc2)CC1                 15.9
1  O=C(CN1Cc2ccccc2C1=O)NC1CCN(Cc2ccc([123I])cc2)CC1                 41.8

[P] O=C(c1ccc2c(n1)NCCC2)N1CCN(Cc2ccc([123I])cc2)CC1
[Q] O=C(CN1Cc2ccccc2C1=O)N1C[C@H]2CN(Cc3ccc([123I])cc3)C[C@H]2C1
Q) Of the pair P and Q , name the member with the lesser recorded Drug uptake. Refer to your chosen entry by its label in the reply.
A) Q
(Q: 12.3 % ID/g, P: 19.5 % ID/g)

* * *

- Test system: Liver
- measurementNotes: Biodistribution in liver of C57BL/6J mouse bearing mouse B16F0 cells at 0.37 to 1.85 MBq, iv after 24 hrs by gamma counting method
- Assay type: ADME, organism-based
- conditionDetails: in vivo
outcomeMeasure: Drug uptake (% ID/g)

[a] O=C(c1ccc2cccnc2n1)N1CCN(Cc2ccc([123I])cc2)CC1
[b] O=C(CN1Cc2ccccc2C1=O)N1C[C@H]2CN(Cc3ccc([123I])cc3)C[C@H]2C1
[c] O=C(CN1Cc2ccccc2C1=O)NC1CCN(Cc2ccc([123I])cc2)CC1
[d] O=C(c1ccc2c(n1)NCCC2)N1CCN(Cc2ccc([123I])cc2)CC1
Q) Endpoint returns the given molecules ordered by ascending Drug uptake. // list labels; follow requested order
A) b, d, a, c

* * *

- measurementNotes: Ratio of AUC in tumor to bone of C57BL/6J mouse bearing mouse B16F0 cells at 0.37 to 1.85 MBq, iv by gamma counting method
- Format: ADME, organism-based
- conditionDetails: in vivo
outcomeMeasure: Ratio

In [3]: df
Out[3]:
                                 smilestext  reportedmeasurement
0  O=C(c1ccc2c(n1)NCCC2)N1CCN(Cc2ccc([123I])cc2)CC1                 65.5

[a] O=C(CN1Cc2ccccc2C1=O)NC1CCN(Cc2ccc([123I])cc2)CC1
[b] O=C(CN1Cc2ccccc2C1=O)N1C[C@H]2CN(Cc3ccc([123I])cc3)C[C@H]2C1
[c] O=C(c1ccc2cccnc2n1)N1CCN(Cc2ccc([123I])cc2)CC1
Q) Order the records so the highest Ratio appears first and the lowest last. // list labels; follow requested order
A) a, c, b
(a: 65.8, c: 44, b: 25)

* * *

- measurementNotes: Ratio of AUC in tumor to thyroid gland of C57BL/6J mouse bearing mouse B16F0 cells at 0.37 to 1.85 MBq, iv by gamma counting method
- Type: ADME, organism-based
- conditionDetails: in vivo
outcomeMeasure: Ratio

>>> print(df.to_string())
                                 smilestext  reportedmeasurement
0  O=C(c1ccc2cccnc2n1)N1CCN(Cc2ccc([123I])cc2)CC1                    5
1  O=C(c1ccc2c(n1)NCCC2)N1CCN(Cc2ccc([123I])cc2)CC1                  7.2
2  O=C(CN1Cc2ccccc2C1=O)NC1CCN(Cc2ccc([123I])cc2)CC1                  5.8
3  O=C(CN1Cc2ccccc2C1=O)N1C[C@H]2CN(Cc3ccc([123I])cc3)C[C@H]2C1                    6

* * *

- Tested on: Liver
- measurementNotes: Biodistribution in liver of C57BL/6J mouse bearing mouse B16F0 cells at 0.37 to 1.85 MBq, iv after 48 hrs by gamma counting method
- Assay type: ADME, organism-based
- conditionDetails: in vivo
outcomeMeasure: Drug uptake (% ID/g)

>>> print(df.to_string())
                                 smilestext    tgt  reportedmeasurement
0  O=C(c1ccc2cccnc2n1)N1CCN(Cc2ccc([123I])cc2)CC1  Liver                  0.7
1  O=C(CN1Cc2ccccc2C1=O)N1C[C@H]2CN(Cc3ccc([123I])cc3)C[C@H]2C1  Liver                  0.2

[I] O=C(c1ccc2c(n1)NCCC2)N1CCN(Cc2ccc([123I])cc2)CC1
[II] O=C(CN1Cc2ccccc2C1=O)NC1CCN(Cc2ccc([123I])cc2)CC1
Q) Consider I and II . Which of these has its Drug uptake at a higher number? Refer to your chosen entry by its label in the reply.
A) II

* * *

- System: Mus musculus
- measurementNotes: Biodistribution in thyroid gland of C57BL/6J mouse bearing mouse B16F0 cells at 0.37 to 1.85 MBq, iv after 16 hrs by gamma counting method
- Format: ADME, organism-based
- conditionDetails: in vivo
outcomeMeasure: Drug uptake (% ID/g)

In [3]: df
Out[3]:
                                 smilestext           tgt  outcomemeasure  reportedmeasurement
0  O=C(CN1Cc2ccccc2C1=O)NC1CCN(Cc2ccc([123I])cc2)CC1  Mus musculus     Drug uptake                  2.3

[A] O=C(c1ccc2c(n1)NCCC2)N1CCN(Cc2ccc([123I])cc2)CC1
[B] O=C(c1ccc2cccnc2n1)N1CCN(Cc2ccc([123I])cc2)CC1
[C] O=C(CN1Cc2ccccc2C1=O)N1C[C@H]2CN(Cc3ccc([123I])cc3)C[C@H]2C1
Q) Ascending by Drug uptake, please. // list labels; follow requested order
A) C, B, A
(C: 1 % ID/g, B: 1.6 % ID/g, A: 2.5 % ID/g)

* * *

- Test system: Mus musculus
- measurementNotes: Biodistribution in tumor of C57BL/6J mouse bearing mouse B16F0 cells at 0.37 to 1.85 MBq, iv after 6 hrs by gamma counting method
- Format: ADME, organism-based
- conditionDetails: in vivo
outcomeMeasure: Drug uptake (% ID/g)

>>> print(df.to_string())
                                 smilestext  outcomemeasure  reportedmeasurement
0  O=C(CN1Cc2ccccc2C1=O)NC1CCN(Cc2ccc([123I])cc2)CC1     Drug uptake                 18.1

[A] O=C(c1ccc2cccnc2n1)N1CCN(Cc2ccc([123I])cc2)CC1
[B] O=C(c1ccc2c(n1)NCCC2)N1CCN(Cc2ccc([123I])cc2)CC1
[C] O=C(CN1Cc2ccccc2C1=O)N1C[C@H]2CN(Cc3ccc([123I])cc3)C[C@H]2C1
Q) Order the records so the highest Drug uptake appears first and the lowest last. // list labels; follow requested order
A) B, A, C
(B: 32.5 % ID/g, A: 19.4 % ID/g, C: 10.4 % ID/g)

Data origin, for the record: ChEMBL document CHEMBL3588831
